Cited source: patent US20250340552A1

- Target System: Cbl-B (Homo sapiens)
- Construct: MSD-Based Assay for Degradation of Cbl-B in THP-1 Cells; endogenous in cells; host or cells: THP-1 (title) / Jurkat (protocol text)
- Sequence (Q13191 whole entry): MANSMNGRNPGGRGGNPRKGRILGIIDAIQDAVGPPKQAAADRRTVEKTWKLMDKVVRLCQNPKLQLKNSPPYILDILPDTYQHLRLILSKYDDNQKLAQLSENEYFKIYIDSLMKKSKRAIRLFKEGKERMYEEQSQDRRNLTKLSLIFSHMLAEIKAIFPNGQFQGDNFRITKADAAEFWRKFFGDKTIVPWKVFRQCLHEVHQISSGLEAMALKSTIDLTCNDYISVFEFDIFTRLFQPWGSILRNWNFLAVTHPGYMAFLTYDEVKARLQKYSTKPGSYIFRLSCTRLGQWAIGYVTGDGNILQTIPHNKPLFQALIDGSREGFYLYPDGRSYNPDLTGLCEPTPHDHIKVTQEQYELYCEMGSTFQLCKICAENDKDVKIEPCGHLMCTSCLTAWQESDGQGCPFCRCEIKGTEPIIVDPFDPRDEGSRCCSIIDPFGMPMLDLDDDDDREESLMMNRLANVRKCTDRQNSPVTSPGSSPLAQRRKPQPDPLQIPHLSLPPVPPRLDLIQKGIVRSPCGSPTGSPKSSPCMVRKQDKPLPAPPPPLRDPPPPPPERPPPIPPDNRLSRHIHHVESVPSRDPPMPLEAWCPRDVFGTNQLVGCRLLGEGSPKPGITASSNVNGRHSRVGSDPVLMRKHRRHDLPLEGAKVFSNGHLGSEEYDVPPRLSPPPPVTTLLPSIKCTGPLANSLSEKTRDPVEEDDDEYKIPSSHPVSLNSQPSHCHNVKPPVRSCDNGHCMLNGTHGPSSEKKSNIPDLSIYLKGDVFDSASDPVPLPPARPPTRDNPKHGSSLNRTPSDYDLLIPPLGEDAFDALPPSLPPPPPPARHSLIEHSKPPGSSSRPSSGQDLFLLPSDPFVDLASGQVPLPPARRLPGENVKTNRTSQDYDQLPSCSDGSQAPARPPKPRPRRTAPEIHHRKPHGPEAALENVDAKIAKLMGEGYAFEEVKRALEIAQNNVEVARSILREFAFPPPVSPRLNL
- Measurement Protocol: MSD-based assay for degradation of Cbl-B in THP-1 cells
- Assay type: cell-based
- Measurement Context: Cbl-B degradation, Jurkat cells seeded (heading: THP-1 cells), 24 hours incubation, MSD readout; read-out: Dmax
Catalogue of compounds with associated Dmax

- Compound: "CN(CC1CCN(Cc2cc(C(F)(F)F)c3cn(-c4cccc([C@H](c5nncn5C)C5CCC5)c4)c(=O)n3c2)CC1)C(=O)c1ccc(N2CCN(c3ccc4c(c3)CN([C@@H]3CCC(=O)NC3=O)C4=O)CC2)cc1 (single isomer, unassigned) [Compound 117]"
  Dmax: "30 to 50%"
- Compound: "CN(C(=O)c1ccc(N2CCN(c3ccc4c(c3)CN([C@@H]3CCC(=O)NC3=O)C4=O)CC2)cc1)C1CCN(Cc2cc(C(F)(F)F)c3cn(-c4cccc([C@H](c5nncn5C)C5CCC5)c4)c(=O)n3c2)CC1 [Compound 137]"
  Dmax: "30 to 50%"
- Compound: "Cn1cnnc1CC1(c2cccc(-n3cc4c(C(F)(F)F)cc(CN5CCC(OCc6ccc(C(=O)N7CCN(c8ccc9c(c8)CN([C@@H]8CCC(=O)NC8=O)C9=O)CC7)cc6)CC5)cn4c3=O)c2)COC1 (single isomer, unassigned) [Compound 243]"
  Dmax: "> 70%"
- Compound: "Cn1cnnc1[C@@H](c1cccc(-n2cc3c(C(F)(F)F)cc(CN4CCC[C@H](OCCc5ccc(CN6CCN(c7ccc8c(c7)CN([C@@H]7CCC(=O)NC7=O)C8=O)CC6)cc5)C4)cn3c2=O)c1)C1CCC1 (single isomer, unassigned) [Compound 127]"
  Dmax: "< 30%"
- Compound: "Cn1cnnc1[C@@H](c1cccc(-n2cc3c(C(F)(F)F)cc(CN4CCC(OCCN5CCC(CN6CCN(c7cc8c(cc7F)C(=O)N(C7CCC(=O)NC7=O)C8=O)CC6)CC5)CC4)cn3c2=O)c1)C1CCC1 (stereo partly drawn) [Compound 16]"
  Dmax: "30 to 50%"
- Compound: "Cn1cnnc1CC1(c2cccc(-n3cc4c(C(F)(F)F)cc(CNCCOCCOCCNc5cccc6c5C(=O)N(C5CCC(=O)NC5=O)C6=O)cn4c3=O)c2)COC1 (stereo not drawn) [Compound 1]"
  Dmax: "< 30%"
- Compound: "CN(CCOCc1cc(C(F)(F)F)c2cn(-c3cccc([C@H](c4nncn4C)C4CCC4)c3)c(=O)n2c1)C(=O)c1ccc(N2CCN(c3ccc4c(c3)CN([C@H]3CCC(=O)NC3=O)C4=O)CC2)cc1 (single isomer, unassigned) [Compound 148]"
  Dmax: "30 to 50%"
- Compound: "Cn1cnnc1[C@@H](c1cccc(-n2cc3c(C(F)(F)F)cc(CN4CCC(OCCN5CCC(CN6CCN(c7ccc8c(c7)CN([C@@H]7CCC(=O)NC7=O)C8=O)CC6)CC5)CC4)cn3c2=O)c1)C1COC1 [Compound 57]"
  Dmax: "50 to 70%"
- Compound: "Cn1cnnc1CC1(c2cccc(-n3cc4c(C(F)(F)F)cc(CN5CCC(COCc6ccc(CN7CCN(c8ccc9c(c8)CN([C@@H]8CCC(=O)NC8=O)C9=O)CC7)cc6)CC5)cn4c3=O)c2)COC1 [Compound 215]"
  Dmax: "< 30%"
